Where do these numbers come from? They come from patent US6638981B2.

- experiment-notes: Chemical and physical stability studies under ICH storage conditions (extraction, HPLC, appearance)
- Type: physicochemical
- condition-summary: in Composition A; 30° C./60% RH; two months
Where a name gives a salt, the structure may show the parent alone.
Known calc. percentage of actives after storage for two months, 30° C. of a selection of molecules

Would you please look over these solved cases?
| molecule | observed-value |
| --- | --- |
| CCCOC(=O)c1ccc(O)cc1 [Propylparaben] | 103% |
| COC(=O)c1ccc(O)cc1 [Methylparaben] | 102% |
| CN(C)CCC=C1c2ccccc2CCc2ccccc21 [Amitriptyline Hydrochloride, Amitriptyline hydrochloride] | 102% |

Next, consider the following molecule.
Task: Specify measured calc. percentage of actives after storage for two months, 30° C. for CNC1(c2ccccc2Cl)CCCCC1=O (stereo not shown) [Ketamine Hydrochloride, Ketamine hydrochloride] .
Output: 100%
